Data provenance: paper PMC6017357

# measurement_target: CYP2C8 (Homo sapiens)
# Sequence (P10632 1-490): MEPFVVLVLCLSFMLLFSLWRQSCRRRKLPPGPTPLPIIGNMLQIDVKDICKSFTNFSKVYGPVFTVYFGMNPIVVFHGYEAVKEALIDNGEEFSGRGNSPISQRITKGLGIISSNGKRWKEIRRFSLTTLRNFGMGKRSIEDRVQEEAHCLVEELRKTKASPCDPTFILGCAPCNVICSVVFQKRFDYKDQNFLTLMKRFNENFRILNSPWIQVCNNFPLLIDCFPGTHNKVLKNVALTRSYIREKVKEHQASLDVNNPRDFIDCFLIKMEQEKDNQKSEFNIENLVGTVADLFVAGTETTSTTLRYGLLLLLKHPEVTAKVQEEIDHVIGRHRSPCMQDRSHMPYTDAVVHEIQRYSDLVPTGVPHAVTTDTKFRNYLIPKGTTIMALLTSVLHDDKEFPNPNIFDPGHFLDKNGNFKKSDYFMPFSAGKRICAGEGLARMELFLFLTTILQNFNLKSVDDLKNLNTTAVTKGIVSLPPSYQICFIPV
# experimental_details: CYP2C8-catalyzed amodiaquine N-deethylation in human liver microsomes (IC50 and time-dependent inhibition)
# Type: in vitro ADME
# Set-up: from tissue; host or cells: ultrapooled human liver microsomes
# assay_context: human, ultrapooled human liver microsomes, pH 7.4, probe amodiaquine (2 µM), N-deethylation; read-out: kinact, time-dependent inhibition of CYP2C8 amodiaquine N-deethylase (converted)
# Procedure: The inhibitory potential (IC50 values) of EAM-2201 on CYP1A2, CYP2A6, CYP2C8, CYP2C9, CYP2C19, CYP2D6 and CYP3A4 were evaluated using ultrapooled human liver microsomes and a cocktail of seven CYP substrates followed by LC-tandem mass spectrometry (LC-MS/MS) as previously described. […] Aliquots (5 µL) of the diluted supernatants were analyzed using LC-MS/MS. […] The metabolites formed from CYP substrates were simultaneously quantified using our previously described LC-MS/MS method. […]

[
  {
    "compound": "CCc1ccc(C(=O)c2cn(CCCCCF)c3ccccc23)c2ccccc12 [EAM-2201]",
    "measurement_target": "CYP2C8 (Homo sapiens)",
    "kinact / s⁻¹": 0.00105
  }
]

====

# measurement_target: CYP2C19 (Homo sapiens, UniProt P33261)
# Sequence (P33261 whole entry): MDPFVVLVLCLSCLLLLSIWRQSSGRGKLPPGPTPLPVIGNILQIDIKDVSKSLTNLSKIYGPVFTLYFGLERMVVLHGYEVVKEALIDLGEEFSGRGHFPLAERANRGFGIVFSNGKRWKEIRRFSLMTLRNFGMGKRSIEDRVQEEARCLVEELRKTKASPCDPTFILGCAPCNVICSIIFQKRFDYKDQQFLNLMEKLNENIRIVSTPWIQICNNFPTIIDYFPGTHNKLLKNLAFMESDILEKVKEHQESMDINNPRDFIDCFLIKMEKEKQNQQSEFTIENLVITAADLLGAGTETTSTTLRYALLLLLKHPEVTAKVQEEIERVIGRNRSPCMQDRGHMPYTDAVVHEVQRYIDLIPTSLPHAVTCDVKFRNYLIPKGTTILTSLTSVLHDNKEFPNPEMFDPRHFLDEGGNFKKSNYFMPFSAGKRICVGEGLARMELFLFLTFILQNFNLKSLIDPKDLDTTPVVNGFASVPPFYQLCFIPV
# experimental_details: CYP2C19-mediated [S]-mephenytoin 4′-hydroxylation in human liver microsomes (IC50 and time-dependent inhibition)
# Assay type: in vitro ADME
# Design: from tissue; host or cells: ultrapooled human liver microsomes
# assay_context: human, ultrapooled human liver microsomes, pH 7.4, probe [S]-mephenytoin (100 µM), 4′-hydroxylation; read-out: kinact, time-dependent inhibition of CYP2C19 [S]-mephenytoin 4′-hydroxylase (converted)

[
  {
    "smiles_entry": "CCc1ccc(C(=O)c2cn(CCCCCF)c3ccccc23)c2ccccc12",
    "kinact, s⁻¹": 0.00044
  }
]

====

# measurement_target: CYP3A4 (Homo sapiens)
# experimental_details: CYP3A4-mediated midazolam 1′-hydroxylation in human liver microsomes (IC50 and time-dependent inhibition)
# Type: in vitro ADME
# Parameters: from tissue; host or cells: ultrapooled human liver microsomes
# assay_context: human, ultrapooled human liver microsomes, pH 7.4, probe midazolam (2 µM), 1′-hydroxylation; read-out: kinact, time-dependent inhibition of CYP3A4 midazolam 1′-hydroxylase (converted)
measured_metric: kinact (s⁻¹)

[
  {
    "compound": "CCc1ccc(C(=O)c2cn(CCCCCF)c3ccccc23)c2ccccc12 [EAM-2201]",
    "measured_metric": "kinact",
    "reported_measurement": 0.000417
  }
]

====

# measurement_target: UniProt P35503
# experimental_details: UGT1A3-catalyzed chenodeoxycholic acid 24-acyl-glucuronidation in human liver microsomes
# Format: in vitro ADME
# Parameters: from tissue; host or cells: ultrapooled human liver microsomes

[
  {
    "smiles_entry": "CCc1ccc(C(=O)c2cn(CCCCCF)c3ccccc23)c2ccccc12",
    "IC50, µM": 11.7
  }
]

====

# measurement_target: UniProt:P11712
# Sequence (P11712 whole entry): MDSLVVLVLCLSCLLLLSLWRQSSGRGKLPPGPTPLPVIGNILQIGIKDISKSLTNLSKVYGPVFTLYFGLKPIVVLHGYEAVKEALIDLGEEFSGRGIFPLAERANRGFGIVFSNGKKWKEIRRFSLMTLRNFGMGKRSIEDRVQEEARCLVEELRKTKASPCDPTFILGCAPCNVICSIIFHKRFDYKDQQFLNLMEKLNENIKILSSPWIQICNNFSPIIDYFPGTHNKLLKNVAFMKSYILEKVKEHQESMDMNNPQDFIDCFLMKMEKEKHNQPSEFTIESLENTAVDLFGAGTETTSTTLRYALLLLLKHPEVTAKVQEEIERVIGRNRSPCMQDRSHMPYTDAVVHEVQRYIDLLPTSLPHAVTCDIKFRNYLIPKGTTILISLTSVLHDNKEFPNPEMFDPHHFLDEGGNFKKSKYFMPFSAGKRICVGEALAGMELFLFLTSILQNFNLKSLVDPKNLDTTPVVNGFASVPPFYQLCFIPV
# experimental_details: CYP2C9-catalyzed diclofenac 4′-hydroxylation in human liver microsomes (IC50 and time-dependent inhibition)
# Format: in vitro ADME
# Set-up: from tissue; host or cells: ultrapooled human liver microsomes
# assay_context: human, ultrapooled human liver microsomes, pH 7.4, probe diclofenac (10 µM), 4′-hydroxylation; read-out: kinact, time-dependent inhibition of CYP2C9 diclofenac 4′-hydroxylase (converted)
# Protocol: The inhibitory potential (IC50 values) of EAM-2201 on CYP1A2, CYP2A6, CYP2C8, CYP2C9, CYP2C19, CYP2D6 and CYP3A4 were evaluated using ultrapooled human liver microsomes and a cocktail of seven CYP substrates followed by LC-tandem mass spectrometry (LC-MS/MS) as previously described. […] Aliquots (5 µL) of the diluted supernatants were analyzed using LC-MS/MS. […] The metabolites formed from CYP substrates were simultaneously quantified using our previously described LC-MS/MS method. […]
measured_metric: kinact

[
  {
    "molecule": "CCc1ccc(C(=O)c2cn(CCCCCF)c3ccccc23)c2ccccc12 [EAM-2201]",
    "measured_metric": "kinact",
    "reported_measurement": "0.00077 s⁻¹"
  }
]

====

# measurement_target: CYP3A4 (Homo sapiens, UniProt P08684)
# Sequence (P08684 whole entry): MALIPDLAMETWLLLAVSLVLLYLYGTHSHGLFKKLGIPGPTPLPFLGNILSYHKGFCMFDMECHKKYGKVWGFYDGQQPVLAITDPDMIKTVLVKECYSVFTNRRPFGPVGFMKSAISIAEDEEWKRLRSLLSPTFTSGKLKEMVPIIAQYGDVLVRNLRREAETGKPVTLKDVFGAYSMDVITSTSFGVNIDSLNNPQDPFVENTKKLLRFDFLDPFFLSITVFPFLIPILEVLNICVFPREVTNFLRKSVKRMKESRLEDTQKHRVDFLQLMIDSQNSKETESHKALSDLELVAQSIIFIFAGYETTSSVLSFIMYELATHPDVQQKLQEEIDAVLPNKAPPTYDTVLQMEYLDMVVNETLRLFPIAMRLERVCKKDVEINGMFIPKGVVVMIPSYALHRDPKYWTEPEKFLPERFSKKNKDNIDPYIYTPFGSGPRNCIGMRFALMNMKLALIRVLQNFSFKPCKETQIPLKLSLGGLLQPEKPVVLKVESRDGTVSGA
# experimental_details: CYP3A4-mediated midazolam 1′-hydroxylation in human liver microsomes (IC50 and time-dependent inhibition)
pIC50: −log10 of the molar value.

[
  {
    "compound": "CCc1ccc(C(=O)c2cn(CCCCCF)c3ccccc23)c2ccccc12 [EAM-2201]",
    "pIC50": 4.75
  }
]

====

# measurement_target: UGT1A3 (Homo sapiens, UniProt P35503)
# Sequence (P35503 29-534): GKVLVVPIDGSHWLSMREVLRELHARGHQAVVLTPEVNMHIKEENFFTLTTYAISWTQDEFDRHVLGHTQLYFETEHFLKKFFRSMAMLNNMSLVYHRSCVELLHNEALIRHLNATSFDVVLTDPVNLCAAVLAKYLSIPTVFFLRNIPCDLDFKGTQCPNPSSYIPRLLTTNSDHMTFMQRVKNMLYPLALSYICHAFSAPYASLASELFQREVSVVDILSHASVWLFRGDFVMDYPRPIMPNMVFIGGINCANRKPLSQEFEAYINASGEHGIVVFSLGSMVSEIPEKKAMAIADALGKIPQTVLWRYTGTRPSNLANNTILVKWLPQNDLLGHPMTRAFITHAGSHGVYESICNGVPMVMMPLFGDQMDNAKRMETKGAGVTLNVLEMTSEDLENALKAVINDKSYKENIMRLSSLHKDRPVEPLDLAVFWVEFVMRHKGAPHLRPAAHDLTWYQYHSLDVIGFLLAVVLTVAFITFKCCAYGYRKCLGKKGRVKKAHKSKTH
# experimental_details: UGT1A3-catalyzed chenodeoxycholic acid 24-acyl-glucuronidation in human liver microsomes
# Assay type: in vitro ADME
# Design: from tissue; host or cells: ultrapooled human liver microsomes

[
  {
    "smiles_entry": "CCc1ccc(C(=O)c2cn(CCCCCF)c3ccccc23)c2ccccc12",
    "Ki / nM": 2400
  }
]

====

# measurement_target: CYP2C8 (Homo sapiens)
# Sequence (P10632 1-490): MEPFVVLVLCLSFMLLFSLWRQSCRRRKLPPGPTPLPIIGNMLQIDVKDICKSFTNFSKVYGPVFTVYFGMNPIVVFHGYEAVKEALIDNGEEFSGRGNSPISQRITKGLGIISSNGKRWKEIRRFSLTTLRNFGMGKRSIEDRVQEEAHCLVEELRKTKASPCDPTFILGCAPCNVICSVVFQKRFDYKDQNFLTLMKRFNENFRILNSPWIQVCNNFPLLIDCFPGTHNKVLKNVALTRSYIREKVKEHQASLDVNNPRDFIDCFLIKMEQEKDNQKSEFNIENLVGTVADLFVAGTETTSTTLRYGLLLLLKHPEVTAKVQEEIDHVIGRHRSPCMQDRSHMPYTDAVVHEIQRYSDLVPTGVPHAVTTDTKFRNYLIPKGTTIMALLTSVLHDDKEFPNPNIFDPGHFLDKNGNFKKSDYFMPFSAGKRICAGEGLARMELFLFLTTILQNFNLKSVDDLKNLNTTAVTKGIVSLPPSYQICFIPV
# experimental_details: CYP2C8-catalyzed amodiaquine N-deethylation in human liver microsomes (IC50 and time-dependent inhibition)
pIC50: −log10 of the molar value.

[
  {
    "compound": "CCc1ccc(C(=O)c2cn(CCCCCF)c3ccccc23)c2ccccc12 [EAM-2201]",
    "measurement_target": "CYP2C8 (Homo sapiens)",
    "pIC50": 5.52
  }
]
